ASSAY_PROCEDURE: Cytotoxicity against African green monkey Vero cells measured after 72 hrs by resazurin assay
Assay type: cell-based
CONDITIONS: chlorocebus sabaeus
This listing pairs molecules with measured CC50 at 72 h.
Just the number please, in µM, no unit attached.

Record excerpt, results attached:
{"columns": ["RECORD_SMILES", "CC50 at 72 h / µM"],
 "data": [
  ["CCCCN1C(=O)/C(=C\\C(=O)C[C@@H]2O[C@H](COC(C)=O)[C@@H](OC(C)=O)[C@H](OC(C)=O)[C@H]2OC(C)=O)c2ccccc21", 126],
  ["CC(=O)OC[C@H]1O[C@@H](CC(=O)/C=C2\\C(=O)N(Cc3ccc(F)cc3)c3ccc(Cl)cc32)[C@H](OC(C)=O)[C@@H](OC(C)=O)[C@@H]1OC(C)=O", 107],
  ["CC(=O)OC[C@H]1O[C@@H](CC(=O)/C=C2\\C(=O)N(Cc3cccc(C)c3)c3ccccc32)[C@H](OC(C)=O)[C@@H](OC(C)=O)[C@@H]1OC(C)=O", 72.5],
  ["CC(=O)OC[C@H]1O[C@@H](CC(=O)/C=C2\\C(=O)Nc3ccc(Cl)cc32)[C@H](OC(C)=O)[C@@H](OC(C)=O)[C@@H]1OC(C)=O", 122],
  ["CC(=O)OC[C@H]1O[C@@H](CC(=O)/C=C2\\C(=O)N(CCc3ccccc3)c3ccccc32)[C@H](OC(C)=O)[C@@H](OC(C)=O)[C@@H]1OC(C)=O", 64.7]
]}

Here's the next entry for you.
Value of measured CC50 at 72 h for the entry CC(=O)OC[C@H]1O[C@@H](CC(=O)/C=C2\C(=O)N(Cc3ccc(F)cc3)c3ccccc32)[C@H](OC(C)=O)[C@@H](OC(C)=O)[C@@H]1OC(C)=O : 119

====

ASSAY_PROCEDURE: Selectivity index, ratio of CC50 for African green monkey Vero cells to IC50 for chloroquine-resistant Plasmodium falciparum K1 asynchronous cultures infected in human erythrocytes
Type: toxicity, cell-based
CONDITIONS: read-out: Ratio CC50/IC50
MEASUREMENT_NAME: selectivity ratio
Please reply with the value in numeric form only.

Examples from the recorded data:
{"columns": ["RECORD_SMILES", "RESULT_VALUE"],
 "data": [
  ["CC(=O)OC[C@H]1O[C@@H](CC(=O)/C=C2\\C(=O)N(Cc3ccccc3)c3ccc(Cl)cc32)[C@H](OC(C)=O)[C@@H](OC(C)=O)[C@@H]1OC(C)=O", 294],
  ["CCCCN1C(=O)/C(=C\\C(=O)C[C@@H]2O[C@H](COC(C)=O)[C@@H](OC(C)=O)[C@H](OC(C)=O)[C@H]2OC(C)=O)c2ccccc21", 68.2],
  ["CC(=O)OC[C@H]1O[C@@H](CC(=O)/C=C2\\C(=O)N(Cc3ccc(Br)cc3)c3ccccc32)[C@H](OC(C)=O)[C@@H](OC(C)=O)[C@@H]1OC(C)=O", 95.7]
]}

Lab note: next compound to report on.
Value of measured selectivity ratio for the entry CC(=O)OC[C@H]1O[C@@H](CC(=O)/C=C2\C(=O)N(CCc3ccccc3)c3ccc(Cl)cc32)[C@H](OC(C)=O)[C@@H](OC(C)=O)[C@@H]1OC(C)=O : 98.9

====

Here the recorded CC50 at 72 h is given for each entry.
ASSAY_PROCEDURE: Cytotoxicity against African green monkey Vero cells measured after 72 hrs by resazurin assay
Type: cell-based
CONDITIONS: chlorocebus sabaeus
Just the number in µM, nothing appended.

{"columns": ["RECORD_SMILES", "U", "CC50 at 72 h"],
 "data": [
  ["CCCN1C(=O)/C(=C\\C(=O)C[C@@H]2O[C@H](COC(C)=O)[C@@H](OC(C)=O)[C@H](OC(C)=O)[C@H]2OC(C)=O)c2cc(Cl)ccc21", "µM", 95.5],
  ["CC(=O)OC[C@H]1O[C@@H](CC(=O)/C=C2\\C(=O)Nc3ccccc32)[C@H](OC(C)=O)[C@@H](OC(C)=O)[C@@H]1OC(C)=O", "µM", 127],
  ["CCCN1C(=O)/C(=C\\C(=O)C[C@@H]2O[C@H](COC(C)=O)[C@@H](OC(C)=O)[C@H](OC(C)=O)[C@H]2OC(C)=O)c2ccccc21", "µM", 125],
  ["CC(=O)OC[C@H]1O[C@@H](CC(=O)/C=C2\\C(=O)N(Cc3ccccc3)c3ccccc32)[C@H](OC(C)=O)[C@@H](OC(C)=O)[C@@H]1OC(C)=O", "µM", 71.2]
]}

Turning now to a further record.
For record CC(=O)OC[C@H]1O[C@@H](CC(=O)/C=C2\C(=O)N(Cc3cccc(C)c3)c3ccc(Cl)cc32)[C@H](OC(C)=O)[C@@H](OC(C)=O)[C@@H]1OC(C)=O the listed CC50 at 72 h is 91

====

ASSAY_PROCEDURE: Selectivity index, ratio of CC50 for African green monkey Vero cells to IC50 for chloroquine-sensitive Plasmodium falciparum 3D7 asynchronous cultures infected in human erythrocytes
Format: toxicity, cell-based
CONDITIONS: read-out: Ratio CC50/IC50
selectivity ratio strictly under 300 means T; at 300 or over means F.

Answered examples (2):
{"columns": ["RECORD_SMILES", "ASSIGNED_LABEL"],
 "data": [
  ["CC(=O)OC[C@H]1O[C@@H](CC(=O)/C=C2\\C(=O)N(Cc3cccc(C)c3)c3ccccc32)[C@H](OC(C)=O)[C@@H](OC(C)=O)[C@@H]1OC(C)=O", "T"],
  ["CC(=O)OC[C@H]1O[C@@H](CC(=O)/C=C2\\C(=O)N(Cc3ccc(F)cc3)c3ccc(Cl)cc32)[C@H](OC(C)=O)[C@@H](OC(C)=O)[C@@H]1OC(C)=O", "F"]
]}

Problem: For the compound CC(=O)OC[C@H]1O[C@@H](CC(=O)/C=C2\C(=O)N(CCc3ccccc3)c3ccccc32)[C@H](OC(C)=O)[C@@H](OC(C)=O)[C@@H]1OC(C)=O , is selectivity ratio under 300?
T

Threshold test, selectivity ratio < 300: CC(=O)OC[C@H]1O[C@@H](CC(=O)/C=C2\C(=O)Nc3ccc(Cl)cc32)[C@H](OC(C)=O)[C@@H](OC(C)=O)[C@@H]1OC(C)=O
T

Record CCCN1C(=O)/C(=C\C(=O)C[C@@H]2O[C@H](COC(C)=O)[C@@H](OC(C)=O)[C@H](OC(C)=O)[C@H]2OC(C)=O)c2cc(Cl)ccc21 : is its selectivity ratio strictly below 300?
T

In plain terms, does CC(=O)OC[C@H]1O[C@@H](CC(=O)/C=C2\C(=O)N(Cc3ccccc3)c3ccccc32)[C@H](OC(C)=O)[C@@H](OC(C)=O)[C@@H]1OC(C)=O come in under 300 for selectivity ratio?
T

Decide: selectivity ratio of CCCN1C(=O)/C(=C\C(=O)C[C@@H]2O[C@H](COC(C)=O)[C@@H](OC(C)=O)[C@H](OC(C)=O)[C@H]2OC(C)=O)c2ccccc21 strictly below 300?
T

Record CC(=O)OC[C@H]1O[C@@H](CC(=O)/C=C2\C(=O)N(Cc3cccc(C)c3)c3ccc(Cl)cc32)[C@H](OC(C)=O)[C@@H](OC(C)=O)[C@@H]1OC(C)=O : is its selectivity ratio strictly below 300?
F

Quick check: selectivity ratio of CC(=O)OC[C@H]1O[C@@H](CC(=O)/C=C2\C(=O)N(CCc3ccccc3)c3ccc(Cl)cc32)[C@H](OC(C)=O)[C@@H](OC(C)=O)[C@@H]1OC(C)=O under 300?
F

Given the entry CC(=O)OC[C@H]1O[C@@H](CC(=O)/C=C2\C(=O)N(Cc3ccc(F)cc3)c3ccccc32)[C@H](OC(C)=O)[C@@H](OC(C)=O)[C@@H]1OC(C)=O , would its reported selectivity ratio be below 300?
T

Does the reported selectivity ratio of CCCCN1C(=O)/C(=C\C(=O)C[C@@H]2O[C@H](COC(C)=O)[C@@H](OC(C)=O)[C@H](OC(C)=O)[C@H]2OC(C)=O)c2ccccc21 stay below 300?
T

selectivity ratio under 300? Item: CC(=O)OC[C@H]1O[C@@H](CC(=O)/C=C2\C(=O)N(Cc3ccccc3)c3ccc(Cl)cc32)[C@H](OC(C)=O)[C@@H](OC(C)=O)[C@@H]1OC(C)=O
F

Answer whether the compound CCCCN1C(=O)/C(=C\C(=O)C[C@@H]2O[C@H](COC(C)=O)[C@@H](OC(C)=O)[C@H](OC(C)=O)[C@H]2OC(C)=O)c2cc(Cl)ccc21 has selectivity ratio strictly less than 300
F

====

ASSAY_PROCEDURE: Selectivity index, ratio of CC50 for African green monkey Vero cells to IC50 for chloroquine-resistant Plasmodium falciparum K1 asynchronous cultures infected in human erythrocytes
Assay type: toxicity, cell-based
CONDITIONS: read-out: Ratio CC50/IC50
Listing of recorded selectivity ratio by entry.
The answer should be a number; do not append a unit.

{"columns": ["RECORD_SMILES", "RESULT_VALUE"],
 "data": [
  ["CCCN1C(=O)/C(=C\\C(=O)C[C@@H]2O[C@H](COC(C)=O)[C@@H](OC(C)=O)[C@H](OC(C)=O)[C@H]2OC(C)=O)c2cc(Cl)ccc21", 239],
  ["CC(=O)OC[C@H]1O[C@@H](CC(=O)/C=C2\\C(=O)N(Cc3ccc(Br)cc3)c3ccc(Cl)cc32)[C@H](OC(C)=O)[C@@H](OC(C)=O)[C@@H]1OC(C)=O", 622],
  ["CC(=O)OC[C@H]1O[C@@H](CC(=O)/C=C2\\C(=O)N(Cc3ccc(F)cc3)c3ccccc32)[C@H](OC(C)=O)[C@@H](OC(C)=O)[C@@H]1OC(C)=O", 100],
  ["CC(=O)OC[C@H]1O[C@@H](CC(=O)/C=C2\\C(=O)N(Cc3ccc(F)cc3)c3ccc(Cl)cc32)[C@H](OC(C)=O)[C@@H](OC(C)=O)[C@@H]1OC(C)=O", 429]
]}

Entry under test: CC(=O)OC[C@H]1O[C@@H](CC(=O)/C=C2\C(=O)Nc3ccc(Cl)cc32)[C@H](OC(C)=O)[C@@H](OC(C)=O)[C@@H]1OC(C)=O . Its selectivity ratio was 48.4

The molecule listed as CC(=O)OC[C@H]1O[C@@H](CC(=O)/C=C2\C(=O)N(Cc3ccccc3)c3ccccc32)[C@H](OC(C)=O)[C@@H](OC(C)=O)[C@@H]1OC(C)=O has a reported selectivity ratio of 245
